So I've got a bunch of compounds here, and I need their composite z-score values.
- assay text: probe aLefty2 binding to arrayed compounds – biochemical, biotinylated probe, 635/667 nm fluorescence, primary screen (AID 1094);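 further: score merges spot fluorescence near 667 nm with spot signal-to-noise ratio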
- run conditions: small-molecule microarray, higher = more signal
Number only, no unit.

So for NC(=O)N1C(=O)C2C(C1=O)C1C=C(CCCO)C2C(C2CC2)N1Cc1cc2c(cc1Br)OCO2 (configuration not stated) , the logged composite z-score turned out to be -0.0778

Record COCCOC(=O)N1C(=O)[C@@]2(c3ccccc31)[C@H](C(=O)N1CCc3cc(OC)c(OC)cc3C1)[C@H]1C(=O)O[C@H](c3ccccc3)[C@H](c3ccccc3)N1[C@@H]2c1ccc(O)cc1 , field composite z-score: 0.206

The recorded composite z-score for COCCOC(=O)N1C(=O)[C@@]2(c3cc(C#Cc4ccc(OC)cc4)ccc31)[C@H](c1ccc(O)cc1)N1[C@H](c3ccccc3)[C@H](c3ccccc3)OC(=O)[C@H]1[C@@H]2C(=O)Nc1nc2ccccc2s1 is -0.0376

Notebook: CCCNC(=O)[C@@]1(Sc2ccc(C)cc2)CC(=O)N(Cc2ccccc2C(F)(F)F)[C@@H]1c1ccc(CO)cc1I , composite z-score read as -0.0125

What the record says about COC(=O)[C@@]1(Cc2ccc(OC)cc2)[C@H]2c3cc(C(=O)N4CCCC4)n(CCSCCO)c3C[C@H]2CN1C(=O)c1ccccc1 : composite z-score is 0.172

Reported composite z-score of COc1ccc([C@H]2C[C@H]3C(I)=C[C@@H]2C(=O)[C@]32CO2)cc1 : -0.161

Input COCCOC(=O)N1C(=O)[C@@]2(c3ccccc31)[C@H](C(N)=O)[C@H]1C(=O)O[C@H](c3ccccc3)[C@H](c3ccccc3)N1[C@@H]2c1ccc(O)cc1 . Output composite z-score: -0.166

Entry COC(=O)C(CC#Cc1ccc2c(c1)[C@]1(C(=O)N2)[C@H](c2ccccc2OCCO)N2[C@H](c3ccccc3)[C@H](c3ccccc3)OC(=O)[C@H]2[C@@H]1C(=O)O)C(=O)OC , composite z-score reported as 0.264

Data point: COCCCNC(=O)[C@@]1(Cc2ccccc2CN=[N+]=[N-])N=C(c2ccc(OCCCO)cc2)O[C@H]1c1ccccc1CN=[N+]=[N-] ; composite z-score = 0.239

Kindly note the recorded composite z-score for CCCCCCCCCCC(O)C1C=CC2C(=O)NC(=O)C2N1Nc1ccc(Cl)cc1Cl (configuration not stated) , which is -0.0769

The value of composite z-score measured for the compound C=C(C(=O)CC[C@H](OC(C)=O)c1ccccc1OCCO)C(C)C turned out to be -0.232

So, CCOC(=O)C1=CCC(c2ccc(F)cc2)N(S(=O)(=O)c2ccc(C)cc2)C1 (configuration not stated) ? Its composite z-score was -0.0396

---

Exercise: state measured z-score for each of the compounds provided.
- assay text: changes in parasitized red cell lysis, either direction – P. falciparum Indochina, OD700, 3 h, PSAC antagonist project, primary screen (AID 1156)
- run conditions: P. falciparum-infected erythrocytes, osmotic lysis, higher = more signal, called active from +8 up or from −8 down
No unit in the answer, please; the number alone is enough.

Per the record, C=CCOC(=O)[C@H]1[C@@H]2C(=O)O[C@@H](c3ccccc3)[C@@H](c3ccccc3)N2[C@@H](c2ccc(OCCOC(=O)[C@@H]3C[C@@H]4C(=O)N5CCC[C@H]5C(=O)N4[C@@H]3c3cccc(OCCO)c3)cc2)[C@]12C(=O)Nc1ccc(I)cc12 has z-score of 1.25

Quick note, z-score for CC=CC(O)C1C=CC2C(=O)N(C)C(=O)C2N1N(c1ccccc1)c1ccccc1 (stereo not drawn) landed at -0.461

Sure, the documented z-score for CC(C)CN1C(=O)[C@@]2(c3ccc([N+](=O)[O-])cc3)CC(=O)N(C3CCCCC3)[C@@H]2c2ccc(CO)cc21 is 0.0909

CCOC(=O)C1=C[C@@H](C(C)C)N(S(=O)(=O)c2ccc(C)cc2)[C@H]1c1ccccc1F yielded z-score of -0.422

The recorded z-score for entry COCCOC(=O)N1C(=O)[C@@]2(c3cc(C#CCCO)ccc31)[C@H](c1ccc(O)cc1)N1[C@H](c3ccccc3)[C@H](c3ccccc3)OC(=O)[C@H]1[C@@H]2C(=O)N1CCN(c2ncccn2)CC1 equals 0.599

Measured z-score, C=CC[C@]1(C(=O)NCc2ccccc2)N=C(c2ccc(OCCCO)cc2)O[C@H]1c1ccccc1CN=[N+]=[N-] : 3.16

Per the record, COc1ccc(C#Cc2ccc3c(c2)[C@]2(C(=O)N3)[C@H](c3ccc(O)cc3)N3[C@H](c4ccccc4)[C@H](c4ccccc4)OC(=O)[C@H]3[C@@H]2C(=O)N2CCc3cc(OC)c(OC)cc3C2)cc1 has z-score of -0.205

Notebook: COC(=O)[C@@]1(Cc2ccc(F)cc2)[C@H]2c3cc(C(=O)N(C)C)n(Cc4cc(C)n(C)n4)c3C[C@H]2CN1C(=O)c1ccccc1 , z-score read as 0.0419

---

- assay text: resazurin metabolic signal in HepG2 cells – cell-based, resazurin fluorescence, 24 h, PK04 Diversity Set, profiling panel (AID 1172); further: test concentration not given here
- run conditions: HepG2 viability, higher = more signal
property label: z-score
Kindly provide the number alone.

Record summary for [N-]=[N+]=NCc1ccccc1[C@@H]1OC(c2ccc(OCCCO)cc2)=N[C@]1(CCS(=O)(=O)c1ccccc1)C(=O)N1CCOCC1 : reported z-score = -0.0512

Notebook: CN(C)C(=O)[C@]1(Cc2ccccc2)N=C(c2ccc(OCCCO)cc2)O[C@@H]1c1ccccc1N=[N+]=[N-] , z-score read as -0.274

So, CCOC(=O)C[C@H]1[C@H](OC(=O)c2ccc(C(=O)c3ccccc3)cc2)[C@@H](NC(=O)c2ccccc2)c2cc(OCCCO)ccc2N1C(=O)c1ccccc1 ? Its z-score was -0.529

Lab note: COCCCNC(=O)[C@@H]1c2ccccc2C(=O)N(Cc2ccccc2OC)[C@H]1c1ccc(CO)cc1 gave z-score of 1.13

Sure, the documented z-score for CCCC[C@H]1C[C@@H]1[C@@H]1N(P(=O)(c2ccccc2)c2ccccc2)C[C@@](O)(c2ccccc2)CC12CC2 is 2.63

Lab note: measured z-score of CCN(CC)c1ccc(N2CC=CC34O[C@@H]5/C=C\CCC(C)OC(=O)C5[C@H]3C(=O)N(CCCCCO)[C@@H]4C2=O)cc1 (stereo partly specified) was 0.18

---

- assayed system: Neurogenic locus notch homolog protein 3 (Homo sapiens)
- assay text: small molecules binding NOTCH3 protein – biochemical, 635/667 nm fluorescence, primary screen (AID 1096)
- run conditions: small-molecule microarray, 635 nm fluorescence, higher = more signal
property label: composite z-score
Give the figure only, with no unit attached.

Consider CN1C(=O)C2C=CC(C(O)c3c(F)cccc3Cl)N(NC(=O)OC(C)(C)C)C2C1=O (centres undefined) . Its measured composite z-score is 0.686

Reported composite z-score of CC1CC/C=C\[C@H]2OC34C=CCN(Cc5ccccc5)C(=O)[C@H]3N(C(C)CO)C(=O)[C@@H]4C2C(=O)O1 (some centres undefined) : 0.158

Data point: C=CCC(OC(C)=O)[C@@H]1[C@@H](N(Cc2cc3ccccc3o2)C(=O)Cc2ccc(OC)cc2)c2cc(OCCCO)ccc2N1C(=O)c1ccc2ccccc2c1 (some centres undefined) ; composite z-score = -0.379

Value of measured composite z-score for the entry CO[C@H]1O[C@H](CO)[C@@H](OC(=O)Nc2ccccc2)[C@@H]2OC(=O)[C@@H](Cc3ccc4ccccc4c3)C/C=C/C[C@H](Cc3ccc4ccccc4c3)C(=O)O[C@@H]12 : 0.977

---

- assay text: growth of efflux-deficient E. coli DRC39 – strain DRC39, OD650, 48 h, E. coli filamentation inducers, primary screen (AID 1179);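 further: screen aims at cell division blockers that make cells filament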
- run conditions: E. coli DRC39 delta-acrAB growth, higher = more signal, called active from +8 up or from −8 down
Please enter Fulfilled where z-score is greater than or equal to 0.7, and Not fulfilled where it is lower.

Ask | Decide: is the reported value of z-score for CCCC1(C(=O)OC)C=C2C(=C(c3ccccc3)C(=O)C2C)CN1 (stereo unspecified) equal to or greater than 0.7?
Reply | Not fulfilled

Ask | Does C=CCC(OC(C)=O)[C@@H]1[C@@H](N(Cc2ccc(-c3ccccc3)cc2)C(=O)Cc2ccc(F)cc2)c2cc(OCCCO)ccc2N1C(=O)c1ccc2ccccc2c1 (stereo partly specified) have a reported z-score of at least 0.7?
Reply | Not fulfilled

Ask | z-score >= 0.7 for CN(C)C(=O)[C@]1(Cc2ccccc2)N=C(c2ccc(OCCCO)cc2)O[C@@H]1c1ccccc1N=[N+]=[N-] ?
Reply | Fulfilled

Ask | Decide: is the reported value of z-score for COCCOC(=O)N1C(=O)[C@@]2(c3ccccc31)[C@H](c1ccc(OCCO)cc1)N1[C@H](c3ccccc3)[C@H](c3ccccc3)OC(=O)[C@H]1[C@@H]2C(=O)N1CCc2cc(OC)c(OC)cc2C1 equal to or greater than 0.7?
Reply | Fulfilled

Ask | Does the compound O=C(CS)NCCCCCNC(=O)[C@@H]1C[C@@H]2C(=O)NCC(=O)N2[C@@H]1c1cccc(OCCO)c1 have recorded z-score that is 0.7 or more?
Reply | Fulfilled

Ask | Is z-score for CCC(CC)C(O)C1C=CC2C(=O)N(c3ccccc3)C(=O)C2N1Nc1ccccc1 (stereo unspecified) at or above 0.7?
Reply | Not fulfilled

Ask | Would you say CC(C)NC(=O)[C@@H]1c2ccccc2C(=O)N(C(C)C)[C@H]1c1ccc(CO)cc1 shows z-score at minimum 0.7?
Reply | Not fulfilled

Ask | hey, is z-score for this one >= 0.7? CC(C)[C@@H](C(=O)O)n1cc(C2(O)CCCCC2)nn1
Reply | Not fulfilled

Ask | Does the reported z-score for [N-]=[N+]=Nc1ccccc1C[C@]1(C(=O)NCc2ccccc2)N=C(c2ccc(OCCCO)cc2)O[C@H]1c1ccccc1N=[N+]=[N-] fall at or above the 0.7 mark?
Reply | Not fulfilled

Ask | Hi team, for [N-]=[N+]=NCc1ccccc1[C@@H]1OC(c2ccc(OCCCO)cc2)=N[C@]1(CCS(=O)(=O)c1ccccc1)C(=O)N1CCOCC1 , is the recorded z-score at or above 0.7?
Reply | Fulfilled

Ask | Form field: z-score at least 0.7? Entry: COC(=O)[C@]1(CCC(=O)OC(C)(C)C)N=C(c2ccc(OCCCO)cc2)O[C@@H]1c1ccccc1
Reply | Not fulfilled
